Reported Kd values are given for each entry in this list.
Molecular target: human 5-HT4(b) receptors (Homo sapiens)
Construct: expressed in transfected cells
Sequence (Q13639 whole entry): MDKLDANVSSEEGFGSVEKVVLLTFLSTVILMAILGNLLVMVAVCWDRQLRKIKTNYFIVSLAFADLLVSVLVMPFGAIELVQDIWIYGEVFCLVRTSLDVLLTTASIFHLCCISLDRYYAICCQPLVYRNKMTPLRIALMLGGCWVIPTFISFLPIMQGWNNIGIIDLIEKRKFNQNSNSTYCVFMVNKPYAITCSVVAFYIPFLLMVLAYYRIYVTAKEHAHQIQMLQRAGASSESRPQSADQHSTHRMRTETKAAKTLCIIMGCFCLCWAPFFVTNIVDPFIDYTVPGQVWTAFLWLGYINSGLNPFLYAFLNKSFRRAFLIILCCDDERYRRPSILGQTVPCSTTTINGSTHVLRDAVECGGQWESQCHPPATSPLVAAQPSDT
Assay: Radioligand binding assay with [3H]GR113808, membranes of HEK293 cells stably expressing human 5-HT4(b) receptors
Conditions: [3H]GR113808, HEK293 membranes, human 5-HT4(b); where n = 2, ± half-range; read-out: Binding affinity (pKd value) (pKd ± SEM) (converted)
Description: The development of HEK293 cell lines stably expressing human 5-HT4(b) receptors was described and published previously (Bach et al. 2001). Briefly, HEK293 cells (ATCC) were grown in Dulbecco's modified Eagle's medium with 10% fetal calf serum and penicillin (100 U/ml) and streptomycin (100 μg/ml). […] Binding and adenylyl cyclase data were analyzed by non-linear regression using Microsoft Excel with the Solver add-in, using the below equations. […]
Give the value, in units of nM, as a plain number.

Below, each entry is followed by its recorded Kd result.
# molecule, system, Kd, nM
rows = [
    ("CCOC(=O)CCCN1CCC(NC(=O)c2nn(C(C)C)c3ccccc23)CC1 [Example 31]", "human 5-HT4(b) receptors (Homo sapiens)", 67.6),
    ("O=C(O)CCCN1CCC(CNC(=O)c2c[nH]c3ccccc23)CC1 [Example 62]", "human 5-HT4(b) receptors (Homo sapiens)", 3630),
    ("O=C(O)CCCN1CCC(NC(=O)c2cccc3ccccc23)CC1 [Example 17]", "human 5-HT4(b) receptors (Homo sapiens)", 1000),
    ("CCOC(=O)CCCN1CCC(CNC(=O)c2c[nH]c3ccccc23)CC1 [Example 60]", "human 5-HT4(b) receptors (Homo sapiens)", 110),
    ("CC(C)n1nc(C(=O)NC2CCN(Cc3ccccc3)CC2)c2ccccc21 [Example 29]", "human 5-HT4(b) receptors (Homo sapiens)", 200),
    ("O=C(O)CCCN1CCC(COC(=O)c2c[nH]c3ccccc23)CC1 [Example 13]", "human 5-HT4(b) receptors (Homo sapiens)", 0.912),
]

Now examine the next entry.
Prompt: Query (molecule): CCOC(=O)CCCN1CCC(COC(=O)c2cccc3ccccc23)CC1 [Example 25] ; field requested: Kd
Response: 6.46
